Hello, the source for this data is ChEMBL document CHEMBL5104115, in case you need it.

# System: SW-620
# experiment: Cytotoxicity against human SW-620 cells incubated for 72 hrs by MTT assay
# Type: functional, cell-based
# experimental-parameters: SW-620, 72 h
We begin with a simple list: items and their reported pIC50.
As a rule, pIC50 stands for the negative log10 of the concentration, concentration in M.

Some compounds with known pIC50 results, for comparison:
compound	observed-measurement
CC(C)[C@]12O[C@H]1[C@@H]1O[C@]13[C@]1(O[C@H]1C[C@H]1C4=C(CC[C@@]13C)C(=O)OC4)[C@@H]2OC(=O)CCC(=O)O[C@H]1[C@H](O)[C@@H](CO)OC(O)[C@@H]1O (some centres undefined)	5.59
CC(C)[C@]12O[C@H]1[C@@H]1O[C@]13[C@]1(O[C@H]1C[C@H]1C4=C(CC[C@@]13C)C(=O)OC4)[C@@H]2OC(=O)CCC(=O)O[C@H]1C(O)O[C@H](CO)[C@@H](O)[C@@H]1O (some centres undefined)	5.76
CC(C)[C@]12O[C@H]1[C@@H]1O[C@]13[C@]1(O[C@H]1C[C@H]1C4=C(CC[C@@]13C)C(=O)OC4)[C@@H]2OC(=O)CCC(=O)O[C@@H]1O[C@H](CO)[C@@H](O)[C@H](O)[C@H]1O	5.26

Alright, here's another compound for you.
Report pIC50 under test system SW-620 for CC(C)[C@]12O[C@H]1[C@@H]1O[C@]13[C@]1(O[C@H]1C[C@H]1C4=C(CC[C@@]13C)C(=O)OC4)[C@@H]2OC(=O)CCC(=O)OC[C@H]1OC(O)[C@H](O)[C@@H](O)[C@@H]1O (some centres undefined) .
5.28
